Recorded Human Primary Hepatocyte Editing % 2500 for the following molecules
# System: PCSK9 gene
# assayDetails: PCSK9 gRNA/SpCas9 editing in primary human hepatocytes (Tables 2, 4)
# Assay type: cell-based
# measurementConditions: 2500 ng/RNA/mL; SpCas9 mRNA MS002 1:1 by weight
m = 2'-O-methyl; r = 2'-OH (RNA)
endpointLabel: Human Primary Hepatocyte Editing % 2500 (%)

{"molecule": "GA227: PCSK9 gRNA; protospacer GTCCCGGAAGTTGCCGGCAG (SEQ ID NO: 221) (nucleic acid, sugars from the 5' end m3 r94 m3, linkages s3 o93 s3 (s phosphorothioate, o phosphodiester), T or U not given here) guide: GUCCCGGAAGUUGCCGGCAGGUUUUAGAGCUAGAAAUAGCAAGUUAAAAUAAGGCUAGUCCGUUAUCAACUUGAAAAAGUGGCACCGAGUCGGUGCUUUU", "endpointLabel": "Human Primary Hepatocyte Editing % 2500", "endpointValue": 32.09}
{"molecule": "GA166: PCSK9 gRNA; protospacer CGCCCGTGCGCAGGAGGACG (SEQ ID NO: 160) (nucleic acid, sugars from the 5' end m3 r94 m3, linkages s3 o93 s3 (s phosphorothioate, o phosphodiester), T or U not given here) guide: CGCCCGUGCGCAGGAGGACGGUUUUAGAGCUAGAAAUAGCAAGUUAAAAUAAGGCUAGUCCGUUAUCAACUUGAAAAAGUGGCACCGAGUCGGUGCUUUU", "endpointLabel": "Human Primary Hepatocyte Editing % 2500", "endpointValue": 36.89}
{"molecule": "GA206: PCSK9 gRNA; protospacer CCGGTGGTCACTCTGTATGC (SEQ ID NO: 200) (nucleic acid, sugars from the 5' end m3 r94 m3, linkages s3 o93 s3 (s phosphorothioate, o phosphodiester), T or U not given here) guide: CCGGUGGUCACUCUGUAUGCGUUUUAGAGCUAGAAAUAGCAAGUUAAAAUAAGGCUAGUCCGUUAUCAACUUGAAAAAGUGGCACCGAGUCGGUGCUUUU", "endpointLabel": "Human Primary Hepatocyte Editing % 2500", "endpointValue": 20.73}
{"molecule": "GA203: PCSK9 gRNA; protospacer TGACCCTGCCCTCGATTTCC (SEQ ID NO: 197) (nucleic acid, sugars from the 5' end m3 r94 m3, linkages s3 o93 s3 (s phosphorothioate, o phosphodiester), T or U not given here) guide: UGACCCUGCCCUCGAUUUCCGUUUUAGAGCUAGAAAUAGCAAGUUAAAAUAAGGCUAGUCCGUUAUCAACUUGAAAAAGUGGCACCGAGUCGGUGCUUUU", "endpointLabel": "Human Primary Hepatocyte Editing % 2500", "endpointValue": 37.02}
{"molecule": "GA246: PCSK9 gRNA; protospacer GCCAGCGCCTGGCGAGGGCT (SEQ ID NO: 239) (nucleic acid, sugars from the 5' end m3 r94 m3, linkages s3 o93 s3 (s phosphorothioate, o phosphodiester), T or U not given here) guide: GCCAGCGCCUGGCGAGGGCUGUUUUAGAGCUAGAAAUAGCAAGUUAAAAUAAGGCUAGUCCGUUAUCAACUUGAAAAAGUGGCACCGAGUCGGUGCUUUU", "endpointLabel": "Human Primary Hepatocyte Editing % 2500", "endpointValue": 17.95}
{"molecule": "GA198: PCSK9 gRNA; protospacer CCACCGGGAAATCGAGGGCA (SEQ ID NO: 192) (nucleic acid, sugars from the 5' end m3 r94 m3, linkages s3 o93 s3 (s phosphorothioate, o phosphodiester), T or U not given here) guide: CCACCGGGAAAUCGAGGGCAGUUUUAGAGCUAGAAAUAGCAAGUUAAAAUAAGGCUAGUCCGUUAUCAACUUGAAAAAGUGGCACCGAGUCGGUGCUUUU", "endpointLabel": "Human Primary Hepatocyte Editing % 2500", "endpointValue": 30.93}
